B1: TMEM175 (parent)
chain: ALLHQAETLQPSVWFGGREHVLMF

Variants of: B1
Assay: protein stability index of a GFP-peptide fusion (GPS, HEK-293T) (PSI 1-6); higher = more stable;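 also: lentivirally expressed fusions sorted by FACS into six bins by GFP to DsRed ratio, PSI derived from sequencing read proportions per bin multiplied by bin number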
Details: c terminus: a fixed tail appended
Quantity Measured: protein stability index
Please give only the number in your answer, with no unit.

Ask | Dear colleague, please send me the reported protein stability index for "Q5C" when you can.
Reply | 1.99

Ask | Dear colleague, please send me the reported protein stability index for "A1Y" when you can.
Reply | 2.71

Ask | Dear colleague, please send me the reported protein stability index for "R18L" when you can.
Reply | 3.03

Ask | Dear colleague, please send me the reported protein stability index for "L22Q" when you can.
Reply | 1.9

Ask | Dear colleague, please send me the reported protein stability index for "W14R" when you can.
Reply | 2.65

Ask | Dear colleague, please send me the reported protein stability index for "E7P" when you can.
Reply | 1.96

Ask | Dear colleague, please send me the reported protein stability index for "E19W" when you can.
Reply | 2.92

Ask | Dear colleague, please send me the reported protein stability index for "H4D" when you can.
Reply | 1.89

Ask | Dear colleague, please send me the reported protein stability index for "H4S" when you can.
Reply | 1.99

Ask | Dear colleague, please send me the reported protein stability index for "Q5P" when you can.
Reply | 2.78

Ask | Dear colleague, please send me the reported protein stability index for "M23P" when you can.
Reply | 1.35

Ask | Dear colleague, please send me the reported protein stability index for "P11L" when you can.
Reply | 1.82

Ask | Dear colleague, please send me the reported protein stability index for "E7Q" when you can.
Reply | 2.71

Ask | Dear colleague, please send me the reported protein stability index for "R18P" when you can.
Reply | 1.71

Ask | Dear colleague, please send me the reported protein stability index for "V21W" when you can.
Reply | 1.57

Ask | Dear colleague, please send me the reported protein stability index for "H4Y" when you can.
Reply | 2.17

Ask | Dear colleague, please send me the reported protein stability index for "F15H" when you can.
Reply | 2.12

Ask | Dear colleague, please send me the reported protein stability index for "Q10R" when you can.
Reply | 2.36

Ask | Dear colleague, please send me the reported protein stability index for "V21S" when you can.
Reply | 1.52

Ask | Dear colleague, please send me the reported protein stability index for "S12N" when you can.
Reply | 1

Ask | Dear colleague, please send me the reported protein stability index for "L2E" when you can.
Reply | 1.93

Ask | Dear colleague, please send me the reported protein stability index for "G17R" when you can.
Reply | 3.53

Ask | Dear colleague, please send me the reported protein stability index for "S12E" when you can.
Reply | 2.31

Ask | Dear colleague, please send me the reported protein stability index for "L3N" when you can.
Reply | 1.04

Ask | Dear colleague, please send me the reported protein stability index for "R18T" when you can.
Reply | 2.46

Ask | Dear colleague, please send me the reported protein stability index for "T8K" when you can.
Reply | 3.25

Ask | Dear colleague, please send me the reported protein stability index for "E7F" when you can.
Reply | 2.64

Ask | Dear colleague, please send me the reported protein stability index for "A1H" when you can.
Reply | 2.14

Ask | Dear colleague, please send me the reported protein stability index for "G16S" when you can.
Reply | 2.06

Ask | Dear colleague, please send me the reported protein stability index for "E7G" when you can.
Reply | 3.88

Ask | Dear colleague, please send me the reported protein stability index for "L22N" when you can.
Reply | 2.19

Ask | Dear colleague, please send me the reported protein stability index for "L2V" when you can.
Reply | 1.3

Ask | Dear colleague, please send me the reported protein stability index for "L3Y" when you can.
Reply | 3.46

Ask | Dear colleague, please send me the reported protein stability index for "F15T" when you can.
Reply | 1.85

Ask | Dear colleague, please send me the reported protein stability index for "V21Q" when you can.
Reply | 1.69

Ask | Dear colleague, please send me the reported protein stability index for "H20R" when you can.
Reply | 4.2

Ask | Dear colleague, please send me the reported protein stability index for "F15Q" when you can.
Reply | 1.27

Ask | Dear colleague, please send me the reported protein stability index for "L2G" when you can.
Reply | 1.2

Ask | Dear colleague, please send me the reported protein stability index for "G16T" when you can.
Reply | 1.47

Ask | Dear colleague, please send me the reported protein stability index for "V13A" when you can.
Reply | 3.02

Ask | Dear colleague, please send me the reported protein stability index for "R18D" when you can.
Reply | 1.93

Ask | Dear colleague, please send me the reported protein stability index for "T8V" when you can.
Reply | 1.01

Ask | Dear colleague, please send me the reported protein stability index for "V13N" when you can.
Reply | 2.28

Ask | Dear colleague, please send me the reported protein stability index for "F24Q" when you can.
Reply | 2.4

Ask | Dear colleague, please send me the reported protein stability index for "L22A" when you can.
Reply | 1.1

Ask | Dear colleague, please send me the reported protein stability index for "A6S" when you can.
Reply | 1.68

Ask | Dear colleague, please send me the reported protein stability index for "A6D" when you can.
Reply | 2.55

Ask | Dear colleague, please send me the reported protein stability index for "G17T" when you can.
Reply | 2.68

Ask | Dear colleague, please send me the reported protein stability index for "V21I" when you can.
Reply | 1.53

Ask | Dear colleague, please send me the reported protein stability index for "W14L" when you can.
Reply | 1.73

Ask | Dear colleague, please send me the reported protein stability index for "E7K" when you can.
Reply | 3.58

Ask | Dear colleague, please send me the reported protein stability index for "L3H" when you can.
Reply | 1.57

Ask | Dear colleague, please send me the reported protein stability index for "T8Y" when you can.
Reply | 2.91

Ask | Dear colleague, please send me the reported protein stability index for "L3A" when you can.
Reply | 1.76

Ask | Dear colleague, please send me the reported protein stability index for "L2N" when you can.
Reply | 1.06

Ask | Dear colleague, please send me the reported protein stability index for "A1D" when you can.
Reply | 1.48

Ask | Dear colleague, please send me the reported protein stability index for "L3D" when you can.
Reply | 1.87

Ask | Dear colleague, please send me the reported protein stability index for "G17P" when you can.
Reply | 1.05

Ask | Dear colleague, please send me the reported protein stability index for "L2A" when you can.
Reply | 2.96

Ask | Dear colleague, please send me the reported protein stability index for "Q10D" when you can.
Reply | 2.35

Ask | Dear colleague, please send me the reported protein stability index for "A1P" when you can.
Reply | 1.69

Ask | Dear colleague, please send me the reported protein stability index for "Q5T" when you can.
Reply | 2.94

Ask | Dear colleague, please send me the reported protein stability index for "Q10H" when you can.
Reply | 1.99

Ask | Dear colleague, please send me the reported protein stability index for "L2I" when you can.
Reply | 3.26

Ask | Dear colleague, please send me the reported protein stability index for "F24P" when you can.
Reply | 1.54

Ask | Dear colleague, please send me the reported protein stability index for "H20Q" when you can.
Reply | 1.44

Ask | Dear colleague, please send me the reported protein stability index for "G17K" when you can.
Reply | 1.66

Ask | Dear colleague, please send me the reported protein stability index for "G17N" when you can.
Reply | 2.51

Ask | Dear colleague, please send me the reported protein stability index for "F15S" when you can.
Reply | 1.57

Ask | Dear colleague, please send me the reported protein stability index for "H20E" when you can.
Reply | 1.6

Ask | Dear colleague, please send me the reported protein stability index for "G16K" when you can.
Reply | 2.17

Ask | Dear colleague, please send me the reported protein stability index for "H20D" when you can.
Reply | 1.29

Ask | Dear colleague, please send me the reported protein stability index for "Q10S" when you can.
Reply | 2.2

Ask | Dear colleague, please send me the reported protein stability index for "S12T" when you can.
Reply | 2.65

Ask | Dear colleague, please send me the reported protein stability index for "E19H" when you can.
Reply | 2.74

Ask | Dear colleague, please send me the reported protein stability index for "H4K" when you can.
Reply | 1.52

Ask | Dear colleague, please send me the reported protein stability index for "H4E" when you can.
Reply | 1.56

Ask | Dear colleague, please send me the reported protein stability index for "W14A" when you can.
Reply | 1.66

Ask | Dear colleague, please send me the reported protein stability index for "H4F" when you can.
Reply | 3.14

Ask | Dear colleague, please send me the reported protein stability index for "G16N" when you can.
Reply | 2.41

Ask | Dear colleague, please send me the reported protein stability index for "A1Q" when you can.
Reply | 2.96

Ask | Dear colleague, please send me the reported protein stability index for "T8D" when you can.
Reply | 1.83
